tested on: HT29 colon; assay: NCI tumour cell line growth inhibition, 48 h; in the data active = GI50 below about 0.43 µM; inactive = the rest
Give your call using only these classes: 1.0 (active), 0.0 (inactive)

Worked cases, answers included:
{"Compound": "O=C1NC2C(=CC(O)C(O)C2O)c2cc3c(cc21)OCO3 (configuration not stated)", "Group": 1.0}
{"Compound": "Cc1cc(O)cc(C)c1/C=C/c1cncc(C(N)=O)c1", "Group": 0.0}
{"Compound": "O=c1[nH]c(=O)c2cc3cc(C4CC(O)C(CO)O4)ccc3cc2[nH]1 (configuration not stated)", "Group": 0.0}
{"Compound": "COc1cc2c(cc1Cc1cccc(Cl)c1F)c(=O)c(C(=O)O)cn2[C@@H](CO)C(C)C", "Group": 0.0}
{"Compound": "CCCc1cc(=O)n2c(C(=O)Nc3cccc(C(=O)OCC)c3)c(C(=O)Nc3ccc(F)cc3)sc2n1", "Group": 0.0}

Asked: Assay outcome for `Cc1nc(-c2nc(-c3ccc(OC(F)(F)F)cc3)no2)nn1Cc1cccc(N2CCC(S(C)(=O)=O)CC2)c1` : what was it?
Given back: 0.0

Asked: Can you look up the reported call for `Cn1nc(C(F)(F)F)cc1-c1c[nH]c(OCc2ccc(Cl)cc2)c(-c2ccc(Cl)c(C(F)(F)F)c2)c1=O` for me?
Given back: 0.0

* * *

system: KM12 colon; test: NCI tumour cell line growth inhibition, 48 h
Endpoint Label: TGI

{"Input Smiles": "c1ccc(C(NC2=NCCO2)c2ccccc2)cc1", "Endpoint Label": "TGI", "Reported": "> 10 µM"}
{"Input Smiles": "Cc1nc(-c2nc(-c3ccc(OC(F)(F)F)cc3)no2)nn1Cc1cccc(N2CCC(S(C)(=O)=O)CC2)c1", "Endpoint Label": "TGI", "Reported": "> 100 µM"}
{"Input Smiles": "CCc1nc(N)nc(N)c1-c1ccc2nnn(O)c2c1", "Endpoint Label": "TGI", "Reported": "> 100 µM"}

Moving on to the next compound.
`Cc1nc(N2N=C(c3ccc(Cl)cc3)CCC2=O)sc1[N+](=O)[O-]` has a reported TGI of > 100 µM

* * *

test system: MCF7 breast; assay: NCI tumour cell line growth inhibition, 48 h
Endpoint Label: TGI

Field TGI (entry `OC[P+](CO)(CO)C12CC3CC(CC(C3)C1)C2` ) reads > 100 µM

TGI in this record for `N#Cc1c(N)n2c(nc1=Nc1ccc(Cl)cc1)sc1cc(Cl)ccc12` : > 100 µM

Lookup result for `O=C(CCCN1CCC2(CC1)CC(=O)N(N1CCOCC1)C2=O)c1ccc(F)cc1` ; measured TGI: > 100 µM

* * *

test system: OVCAR-4 ovarian; test: NCI tumour cell line growth inhibition, 48 h
Where a SMILES comes first, the peptide text is derived from it. Bridges are numbered along the chain shown (N, C = ends). [ ]: non-standard residue; d: D form. The star is where a group is joined. ξ: configuration not given here. ξDab(CH2SO3H) = NC(CCNCS(=O)(=O)O)C(=O)O; Heptanoyl(6-Me) = CC(C)CCCCC(=O)*; Dab = NCC[CH](N)C(=O)O
List of TGI values.

{"Compound": "COCCNc1ccc2c3c(cccc13)C(=O)N(CCN(C)C)C2=O", "TGI": "> 25 µM"}
{"Compound": "CC/C(=C(/c1ccc(O)cc1)c1ccc(OCCN)cc1)c1ccccc1", "TGI": "16 µM"}
{"Compound": "COc1cc2c(cc1OCCCOS(C)(=O)=O)N=C[C@@H]1CCCN1C2=O", "TGI": "> 100 µM"}

Assay OVCAR-4 ovarian, sample `CC(=NNC(=S)Nc1cccc(C)c1)c1cccc(C(C)=NNC(=S)Nc2cccc(C)c2)n1` , TGI read: 38.5 µM

Observed TGI, OVCAR-4 ovarian, CCC(C)C1NC(=O)C(CCNCS(=O)(=O)O)NC(=O)C(NC(=O)C(CCNCS(=O)(=O)O)NC(=O)C(NC(=O)C(CCNCS(=O)(=O)O)NC(=O)CCCCC(C)C)C(C)O)CCNC(=O)C(C(C)O)NC(=O)C(CCNCS(=O)(=O)O)NC(=O)C(CCNCS(=O)(=O)O)NC(=O)C(C(C)CC)NC1=O (stereo not given) ({Heptanoyl(6-Me)}-[ξDab(CH2SO3H)]T[ξDab(CH2SO3H)][Dab][ξDab(CH2SO3H)]II[ξDab(CH2SO3H)][ξDab(CH2SO3H)]T; lactam 4-C; configuration not given here) : > 25 µM

Kindly note: OVCAR-4 ovarian, CCN(CC)C1CCC(C2c3cc4c(cc3OC(N3CCOCC3)C2C)OCO4)CC1 (stereo not given) , TGI value reported: > 100 µM

Record `COc1cc(-c2oc3c(OC)cc(OC)c(O)c3c(=O)c2OC)cc(OC)c1OC` ; system OVCAR-4 ovarian; TGI = > 100 µM

For the compound `Cc1nn2c(nc1=O)sc1ccc3ccccc3c12` , the measured TGI on OVCAR-4 ovarian was > 100 µM

Response field TGI (OVCAR-4 ovarian) for item `CCCNCC(=O)O[C@]1(CC)C(=O)OCc2c1cc1n(c2=O)Cc2cc3ccccc3nc2-1` : 3.99 µM

Record `O=C(SC1=NCCN1)c1cccc2ccccc12` / OVCAR-4 ovarian, TGI recorded as > 100 µM

So the reported TGI for `C[C@]12CC[C@@H]3c4cc(OC(F)F)c(OS(N)(=O)=O)cc4CC[C@H]3[C@@H]1CC[C@@H]2OS(N)(=O)=O` , on OVCAR-4 ovarian, turned out to be 29.5 µM

Short answer on OVCAR-4 ovarian for `CN(C)CCCSc1nc2c(c(=N)n1-c1ccccc1)c(=S)n(-c1ccccc1)c(=S)n2-c1ccccc1` , TGI: 3.42 µM

TGI of NC1CCCCC1N.O=[Se]([O-])[O-].[Pt+4] (stereo not given) , assay on OVCAR-4 ovarian, is > 100 µM

CC(=O)OCC1OC(n2c3c(cc(C#N)c2=S)CCC3)C(OC(C)=O)C(OC(C)=O)C1OC(C)=O (stereo not given) on OVCAR-4 ovarian gives TGI = > 100 µM

Entry `CCOC(=O)CCSc1nc2ccc(I)cc2c(=O)n1Cc1ccccc1` : TGI on OVCAR-4 ovarian = > 77.1 µM

Assay OVCAR-4 ovarian, sample `N#Cc1c(N)n2c(nc1=Nc1ccc(Cl)cc1)sc1cc(Cl)ccc12` , TGI read: > 100 µM

The value of TGI recorded for `COc1ccc2c(c1)oc(=O)c1cc(OC)ccc12` when tested on OVCAR-4 ovarian reads > 100 µM

Reported TGI (OVCAR-4 ovarian) for entry `C=C1C(=O)O[C@H]2[C@H]1CC/C(C=Nc1c(N)cc(C(F)(F)F)cc1C(F)(F)F)=C\CC[C@@]1(C)O[C@@H]21` is 3.05 µM

Short answer on OVCAR-4 ovarian for `COc1cc2ncnc(Nc3cccc(Cl)c3F)c2cc1OC(=O)N1CCN(C)C[C@H]1C` , TGI: > 79.1 µM

* * *

tested on: HCC-2998 colon; assay: NCI tumour cell line growth inhibition, 48 h
Endpoint Label: TGI

Measured TGI, `N#Cc1ccc(CSC2=C(c3ccc(Cl)cc3)S/C(=C3\SC(SCc4ccc(C#N)cc4)=C(c4ccc(Cl)cc4)S3)S2)cc1` : > 100 µM

Reported TGI of `CC(=NNC(=S)Nc1cccc(C)c1)c1cccc(C(C)=NNC(=S)Nc2cccc(C)c2)n1` : > 100 µM

Entry under test: `O=[N+]([O-])c1ccc(C2=Nn3c(nnc3-c3ccc(Cl)cc3)SC2)o1` . Its TGI was 5.72 µM

* * *

The entries below come with measured TGI values attached.
tested on: HOP-62 NSCLC; experiment: NCI tumour cell line growth inhibition, 48 h

Consider the worked cases shown below.
{"Compound": "Cc1nc(N2N=C(c3ccc(Cl)cc3)CCC2=O)sc1[N+](=O)[O-]", "Endpoint Label": "TGI", "Reported": "> 100 µM"}
{"Compound": "CCOC(=O)Cn1c(=O)c2nc(SC)sc2n(-c2ccccc2)c1=S", "Endpoint Label": "TGI", "Reported": "57.1 µM"}
{"Compound": "CN(C)CCCNc1ncnc2c1ncn2C1OC(CO)C(O)C1O (centres undefined)", "Endpoint Label": "TGI", "Reported": "> 100 µM"}
{"Compound": "CCOC(=O)C1(N)CCc2[nH][nH]c(=O)c2C1 (centres undefined)", "Endpoint Label": "TGI", "Reported": "> 100 µM"}

Measured on HOP-62 NSCLC, `O=[N+]([O-])c1ccc(Oc2c(Cl)cc(S(=O)(=O)/N=C(\NO)Nc3ccc(Cl)cc3)cc2Cl)c(Cl)c1` has a documented TGI of 30.3 µM

Simply: `C=CCN1COc2c(cc3c4c(cccc24)C(=O)O3)C1` , HOP-62 NSCLC, TGI = > 100 µM

Reported TGI (HOP-62 NSCLC) for entry `COc1cc(/C=N\c2nc(-c3ccc(NS(=O)(=O)c4ccc(Cl)c(OC)c4)cc3)cs2)ccc1O` is > 100 µM

So the reported TGI for O=C(OC1CCC2OOC1O2)c1ccc([N+](=O)[O-])cc1 (centres undefined) , on HOP-62 NSCLC, turned out to be > 100 µM

Tested system HOP-62 NSCLC; TGI recorded for `CCOC(=O)C(C(=O)OCC)c1ccc([N+](=O)[O-])o1` was > 75.5 µM
